Parameter: CC50. Scope: all listed entries.
# Test system: MT2
# test_summary: Cytotoxicity against mock-infected human MT2 cells after 5 days by MTT assay
# Assay type: cell-based
# run_conditions: mt2, 120 h
Report the value in µM with no unit label.

{"molecule_smiles": "COc1ccc(OCc2ccccc2)c(CCNC(=S)Nc2ccc(Br)cn2)c1", "CC50, µM": 4}
{"molecule_smiles": "C#CCCCOc1ccc(OC)cc1CCNC(=S)Nc1ccc(Br)cn1", "CC50, µM": 10}
{"molecule_smiles": "CC#CCOc1ccc(OC)cc1CCNC(=S)Nc1ccc(Br)cn1", "CC50, µM": 20}
{"molecule_smiles": "C#CCOCCOc1ccc(OC)cc1CCNC(=S)Nc1ccc(Br)cn1", "CC50, µM": 9.5}
{"molecule_smiles": "COc1ccc(OCCO)c(CCNC(=S)Nc2ccc(Br)cn2)c1", "CC50, µM": 1}

Below: the item to evaluate.
Input: CC50 for C#CCOCCOCCOc1ccc(OC)cc1CCNC(=S)Nc1ccc(Br)cn1 ?
Output: 6.8

----------
# test_summary: Therapeutic index, ratio of CC50 for human MT2 cells to EC50 for HIV1 3B
# Type: cell-based
# run_conditions: read-out: Ratio CC50/EC50
// values below are reported selectivity ratio
The response must contain the number and no unit.

Some compounds with known selectivity ratio results, for comparison:
{"molecule_smiles": "C#CCCOc1ccc(OC)cc1CCNC(=S)Nc1ccc(Br)cn1", "selectivity ratio": 38}
{"molecule_smiles": "C#CCOc1ccc(OC)cc1CCNC(=S)Nc1ccc(Br)cn1", "selectivity ratio": 2}
{"molecule_smiles": "COc1ccc(OCCCO)c(CCNC(=S)Nc2ccc(Br)cn2)c1", "selectivity ratio": 94}

Moving on to another compound below.
Input: Recorded selectivity ratio for C=CCOc1ccc(OC)cc1CCNC(=S)Nc1ccc(Br)cn1 , please?
Output: 55

These data points were gathered from ChEMBL document CHEMBL1152198.
